Origin of measurements: patent US20040044000A1

Observed pIC50, system MMP-3 catalytic domain (MMP-3CD) (Homo sapiens).
pIC50: −log10 of the molar value.

Sample records with pIC50:
O=C(O)c1ccc(Cn2ccc3ccc(C(=O)NCc4ccncc4)cc3c2=O)cc1 | < 4.00
COc1cc(CNC(=O)c2ccc3ccn(Cc4ccc(C(=O)O)cc4)c(=O)c3c2)ccc1O | < 4.00
COc1cc(CNC(=O)c2ccc3ccn(Cc4ccc(F)c(F)c4)c(=O)c3c2)ccn1 | < 4.00
COc1cccc(CNC(=O)c2ccc3ccn(Cc4ccc(-c5nn[nH]n5)cc4)c(=O)c3c2)c1 | < 5.00
O=C(NCc1ccncc1)c1ccc2ccn(Cc3ccc(-c4nn[nH]n4)cc3)c(=O)c2c1 | < 4.00

Please turn your attention to the following entry.
The molecule listed as COc1ccc(CNC(=O)c2ccc3ccn(Cc4ccc(S(C)(=O)=O)cc4)c(=O)c3c2)cc1 has a reported pIC50 of < 4.52
